target.or.system: GPIb-vWf interaction (Homo sapiens, UniProt P07359)
Construct: Platelet rich plasma (PRP) was prepared from whole blood by centrifugation; endogenous in cells
experiment.notes: Flow cytometry inhibition of vWf binding to ristocetin-activated platelets in PRP
Assay type: cell-based
No end group written: not given here.
// IC50 lookup, one value per entry

{"columns": ["seq.text", "IC50 [µM]"],
 "data": [
  ["CGGGGGGSHAYIGLKDR [L-pep]", 48],
  ["CGGGGGGRDKLGIYAHS [LR-pep]", 34]
]}

====

Tested on: vWf binding to resting platelets
experiment.notes: Flow cytometry of vWf binding to resting platelets
Assay type: cell-based, human
Description: In order to prepare human platelets for testing, as approved by Canadian Blood Services' Ethics Board, samples of whole blood were drawn from healthy, consenting donors into 2.7-4.0 mL citrated tubes (BD, USA). […] PRP from a number of unrelated donors were evaluated on an Adiva 120 Hematology Analyzer (Bayer, Canada) and standardized to a concentration of 300×10^9 platelets/L in HEPES buffered saline (HBS, 10 mM HEPES, 150 mM NaCl, pH 7.4). […]
No end group written: not given here.
// vWf Binding, Resting Platelets lookup, one value per entry

{"columns": ["substance", "target.or.system", "vWf Binding, Resting Platelets"],
 "data": [
  ["D-CGGGGGGRDKLGIYAHS [D-pep]", "vWf binding to resting platelets", "14 ± 8′"],
  ["D-CGGGGGGRDKLGIYAHS [DR-pep]", "vWf binding to resting platelets", "28 ± 3′"],
  ["LR100: HPG 500 kDa conjugate with about 100 L-retro peptides per HPG molecule (CGGGGGGRDKLGIYAHS; also: conjugated to HPG 500 kDa, about 100 L-retro peptides per HPG molecule, site not given here)", "vWf binding to resting platelets", "22 ± 2′"],
  ["CGGGGGGSHAYIGLKDR [L-pep]", "vWf binding to resting platelets", "24 ± 4′"]
]}

====

target.or.system: fibrinogen (Homo sapiens, UniProt P02671+P02675+P02679)
Sequence (P02671 20-629 limits assumed): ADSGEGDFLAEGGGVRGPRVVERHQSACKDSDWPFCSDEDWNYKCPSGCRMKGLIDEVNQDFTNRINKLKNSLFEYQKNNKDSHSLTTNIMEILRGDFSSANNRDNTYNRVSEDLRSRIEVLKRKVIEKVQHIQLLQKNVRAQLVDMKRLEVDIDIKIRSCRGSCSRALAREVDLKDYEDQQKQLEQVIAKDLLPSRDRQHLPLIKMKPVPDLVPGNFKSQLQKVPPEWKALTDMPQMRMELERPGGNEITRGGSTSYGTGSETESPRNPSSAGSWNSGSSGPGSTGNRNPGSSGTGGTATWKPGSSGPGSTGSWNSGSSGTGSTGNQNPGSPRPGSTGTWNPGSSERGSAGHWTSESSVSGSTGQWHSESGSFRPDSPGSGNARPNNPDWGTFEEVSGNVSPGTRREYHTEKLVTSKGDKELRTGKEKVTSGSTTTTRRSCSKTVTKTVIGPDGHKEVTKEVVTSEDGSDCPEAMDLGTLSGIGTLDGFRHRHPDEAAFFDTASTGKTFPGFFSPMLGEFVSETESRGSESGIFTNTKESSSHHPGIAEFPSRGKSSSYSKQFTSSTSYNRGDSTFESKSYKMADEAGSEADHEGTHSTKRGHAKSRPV
Sequence (P02675 31-491): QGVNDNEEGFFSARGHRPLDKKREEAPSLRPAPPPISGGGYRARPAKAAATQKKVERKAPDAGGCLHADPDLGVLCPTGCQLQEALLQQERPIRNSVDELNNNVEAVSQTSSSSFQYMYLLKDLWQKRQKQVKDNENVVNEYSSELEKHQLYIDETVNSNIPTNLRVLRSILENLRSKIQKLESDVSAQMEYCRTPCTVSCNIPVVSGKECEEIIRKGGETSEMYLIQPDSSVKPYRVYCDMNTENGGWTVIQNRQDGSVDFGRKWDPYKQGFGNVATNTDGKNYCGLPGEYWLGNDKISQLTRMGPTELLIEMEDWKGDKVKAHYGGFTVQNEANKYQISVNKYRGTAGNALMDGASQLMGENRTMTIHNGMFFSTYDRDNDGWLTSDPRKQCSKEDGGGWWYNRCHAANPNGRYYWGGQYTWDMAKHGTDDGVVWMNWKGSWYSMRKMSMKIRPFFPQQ
Sequence (P02679 27-433 limits assumed): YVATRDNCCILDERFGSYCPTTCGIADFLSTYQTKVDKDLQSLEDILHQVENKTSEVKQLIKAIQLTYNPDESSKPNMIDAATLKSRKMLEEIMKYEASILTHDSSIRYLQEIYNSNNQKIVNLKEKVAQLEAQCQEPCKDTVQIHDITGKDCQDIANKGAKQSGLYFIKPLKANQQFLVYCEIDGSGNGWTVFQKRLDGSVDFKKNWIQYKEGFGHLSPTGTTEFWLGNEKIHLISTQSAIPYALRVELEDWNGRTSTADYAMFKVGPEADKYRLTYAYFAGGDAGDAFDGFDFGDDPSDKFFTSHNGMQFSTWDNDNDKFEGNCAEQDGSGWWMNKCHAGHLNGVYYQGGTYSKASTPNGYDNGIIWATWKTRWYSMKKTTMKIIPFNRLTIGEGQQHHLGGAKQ
experiment.notes: Binding of D-amino acid-containing sequences to fibrinogen
Non-standard residues stand in square brackets, D forms with d. No end group written: not given here.

{"columns": ["seq.text", "ability to bind to fibrinogen"],
 "data": [
  ["FRIYYVYTTSQQDSC ([dF][dR][dI][dY][dY][dV][dY][dT][dT][dS][dQ][dQ][dD][dS][dC])", "bind to fibrinogen"],
  ["KYQCYAPAHPSYVNY (also: D-amino acids, places not given here)", "bind to fibrinogen"],
  ["SMTSMCYLIGAPKYK (also: D-amino acids, places not given here)", "bind to fibrinogen"],
  ["FKWSWEWQGQEAYYD ([dF][dK][dW][dS][dW][dE][dW][dQ]G[dQ][dE][dA][dY][dY][dD])", "bind to fibrinogen"]
]}

====

// vWf Binding, Resting Platelets lookup, one value per entry
Tested on: vWf binding to resting platelets
experiment.notes: Flow cytometry of vWf binding to resting platelets
Format: cell-based, human
Non-standard residues stand in square brackets, D forms with d. No end group written: not given here.
quantity.measured: vWf Binding, Resting Platelets

{"columns": ["substance", "quantity.measured", "result.value"],
 "data": [
  ["CGGGGGGRDKLGIYAHS [LR-pep]", "vWf Binding, Resting Platelets", "25 ± 12′"],
  ["L100: HPG 500 kDa conjugate with about 100 L-peptides per HPG molecule (CGGGGGGSHAYIGLKDR; also: conjugated to HPG 500 kDa, about 100 L-peptides per HPG molecule, site not given here)", "vWf Binding, Resting Platelets", "23 ± 2′"],
  ["D10: HPG 500 kDa conjugate with about 10 D-peptides per HPG molecule ([dC]GGGGGG[dR][dD][dK][dL]G[dI][dY][dA][dH][dS]; also: coupled through vinyl sulfone to 500 kDa hyperbranched polyglycerol (HPG), about 10 peptides per HPG)", "vWf Binding, Resting Platelets", "24 ± 2′"],
  ["L10: HPG 500 kDa conjugate with about 10 L-peptides per HPG molecule (CGGGGGGSHAYIGLKDR; also: conjugated to HPG 500 kDa, about 10 L-peptides per HPG molecule, site not given here)", "vWf Binding, Resting Platelets", "22 ± 5′"],
  ["LR10: HPG conjugate with 10 L-retro peptides per HPG molecule (CGGGGGGRDKLGIYAHS; also: conjugated to HPG, 10 L-retro peptides per HPG molecule, site not given here)", "vWf Binding, Resting Platelets", "24 ± 2′"],
  ["D100: HPG 500 kDa conjugate with about 100 D-peptides per HPG molecule ([dC]GGGGGG[dR][dD][dK][dL]G[dI][dY][dA][dH][dS]; also: coupled through vinyl sulfone to 500 kDa hyperbranched polyglycerol (HPG), about 100 peptides per HPG)", "vWf Binding, Resting Platelets", "26 ± 3′"]
]}

====

target.or.system: GPIb-vWf interaction (Homo sapiens, UniProt P07359)
Construct: Platelet rich plasma (PRP) was prepared from whole blood by centrifugation; endogenous in cells
experiment.notes: Flow cytometry inhibition of vWf binding to ristocetin-activated platelets in PRP
Assay type: cell-based
cond: inhibition of platelet-vWf binding, molar concentration of peptide or conjugate; read-out: Ic50
No end group written: not given here.

{"columns": ["substance", "result.unit", "IC50"],
 "data": [
  ["LR10: HPG conjugate with 10 L-retro peptides per HPG molecule (CGGGGGGRDKLGIYAHS; also: conjugated to HPG, 10 L-retro peptides per HPG molecule, site not given here)", "nM", 4100],
  ["L10: HPG 500 kDa conjugate with about 10 L-peptides per HPG molecule (CGGGGGGSHAYIGLKDR; also: conjugated to HPG 500 kDa, about 10 L-peptides per HPG molecule, site not given here)", "nM", 6700],
  ["L100: HPG 500 kDa conjugate with about 100 L-peptides per HPG molecule (CGGGGGGSHAYIGLKDR; also: conjugated to HPG 500 kDa, about 100 L-peptides per HPG molecule, site not given here)", "nM", 1100],
  ["LR100: HPG 500 kDa conjugate with about 100 L-retro peptides per HPG molecule (CGGGGGGRDKLGIYAHS; also: conjugated to HPG 500 kDa, about 100 L-retro peptides per HPG molecule, site not given here)", "nM", 490]
]}
